Biological target: Recombinant human His-tagged Kat6a protein (amino acids 194-810) (Homo sapiens, UniProt Q92794)
Construct: Kat6a protein (amino acids 194-810); His
Sequence (Q92794 194-810): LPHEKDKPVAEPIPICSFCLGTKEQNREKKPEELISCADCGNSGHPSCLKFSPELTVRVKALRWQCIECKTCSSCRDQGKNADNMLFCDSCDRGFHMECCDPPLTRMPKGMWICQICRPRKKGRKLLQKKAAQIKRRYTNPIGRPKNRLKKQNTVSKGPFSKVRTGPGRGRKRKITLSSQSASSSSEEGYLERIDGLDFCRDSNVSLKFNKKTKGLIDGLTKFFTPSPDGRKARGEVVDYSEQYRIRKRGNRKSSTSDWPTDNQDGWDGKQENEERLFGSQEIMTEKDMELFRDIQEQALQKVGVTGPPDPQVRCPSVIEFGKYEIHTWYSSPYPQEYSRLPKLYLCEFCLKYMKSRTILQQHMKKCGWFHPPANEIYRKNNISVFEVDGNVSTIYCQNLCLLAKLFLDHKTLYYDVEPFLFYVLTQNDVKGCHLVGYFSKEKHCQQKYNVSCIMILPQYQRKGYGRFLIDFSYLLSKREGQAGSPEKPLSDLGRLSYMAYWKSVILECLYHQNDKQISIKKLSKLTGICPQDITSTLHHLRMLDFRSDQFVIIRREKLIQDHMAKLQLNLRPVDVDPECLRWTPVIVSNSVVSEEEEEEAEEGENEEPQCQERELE
Assay: Kat6a activity assay (TR-FRET, acetylation of Histone-H4-derived peptide)
Conditions: 60 mins at 22° C., 220 nM H4 peptide, 600 nM Acetyl Coenzyme A, read-out: KAT6A - DPF/HAT domain IC50 [mol/l] (arithmetic mean)
Each record here notes measured IC50.

| compound | IC50 / nM |
| --- | --- |
| CCC(C)Oc1ccc(C)cc1S(=O)(=O)NC(=O)c1cc2c(F)cc(N3CCC3)cc2o1 (centres unmarked) | 8.72 |
| O=C(NS(=O)(=O)c1ccccc1I)c1cc2c(F)cc(N3CCC3)cc2o1 | 34 |
| CC(C)N(C)c1ccc(S(=O)(=O)NC(=O)c2cc3c(F)cc(N4CC(F)C4)cc3o2)c(F)c1F | 362 |
| O=C(NS(=O)(=O)c1ccnc2ccccc12)c1cc2c(F)cc(N3CC(F)C3)cc2o1 | 3080 |
| CC(C)Nc1cccc(F)c1S(=O)(=O)NC(=O)c1cc2c(F)cc(N3CCC3)cc2o1 | 179 |
| CCOc1ccccc1S(=O)(=O)NC(=O)c1cc2ccc(N3CC(F)(F)C3)cc2o1 | 1990 |
| CCOc1ccccc1S(=O)(=O)NC(=O)c1cc2ccc(N3CC(OCC)C3)cc2o1 | 13400 |
| Cc1cc(S(=O)(=O)NC(=O)c2cc3c(F)cc(N4CCC4)cc3o2)c2ncccc2c1 | 44.9 |

###

Molecular target: Recombinant human His-tagged Kat6a protein (amino acids 194-810) (Homo sapiens, UniProt Q92794)
Construct: Kat6a protein (amino acids 194-810); His
Test: Kat6a activity assay (TR-FRET, acetylation of Histone-H4-derived peptide)
Conditions: 60 mins at 22° C., 220 nM H4 peptide, 600 nM Acetyl Coenzyme A, read-out: KAT6A - DPF/HAT domain IC50 [mol/l] (arithmetic mean)
Rule: measured IC50 below 30 nM gets criterion met; anything equal to or greater than 30 nM gets criterion not met.

| compound | class |
| --- | --- |
| CN(C)S(=O)(=O)c1ccc(Cl)c(S(=O)(=O)NC(=O)c2cc3c(F)cc(N4CCC4)cc3o2)c1 [Example 72] | criterion not met |
| CCOc1ccc(C(C)(C)C)cc1S(=O)(=O)NC(=O)c1cc2c(F)cc(N3CC(F)C3)cc2o1 [Example 113] | criterion met |
| O=C(NS(=O)(=O)c1cnc2c(Cl)cc(Cl)cn12)c1cc2c(F)cc(N3CCC3)cc2o1 [Example 168] | criterion not met |
| CCOc1cccc(C(C)C)c1S(=O)(=O)NC(=O)c1cc2c(F)cc(N3CCC3)cc2o1 [Example 23] | criterion met |
| CCOc1ccccc1S(=O)(=O)NC(=O)c1cc2ccc(N3CC(F)C3)cc2o1 [Example 107] | criterion not met |
| CC(C)Oc1cccc(Cl)c1S(=O)(=O)NC(=O)c1cc2c(F)cc(N3CCC3)cc2o1 [Example 29] | criterion not met |
| O=C(NS(=O)(=O)c1cccc2c1S(=O)(=O)CCC2)c1cc2c(F)cc(N3CCC3)cc2o1 [Example 141] | criterion not met |
| COc1ccc(-c2cccnc2)cc1S(=O)(=O)NC(=O)c1cc2c(F)cc(N3CCC3)cc2o1 [Example 200] | criterion not met |
| CCOc1ccccc1S(=O)(=O)NC(=O)c1cc2c(F)cc(N3CCC3C)cc2o1 (racemic) [Example 223] | criterion not met |
| CC(C)(C)c1ccc(OC2CCC2)c(S(=O)(=O)NC(=O)c2cc3c(F)cc(N4CCC4)cc3o2)c1 [Example 228] | criterion met |
| CC(C)c1ccc(OCC2CC2(F)F)c(S(=O)(=O)NC(=O)c2cc3c(F)cc(N4CCC4)cc3o2)c1 (racemic) [Example 231] | criterion met |
| O=C(NS(=O)(=O)c1cccc2cnccc12)c1cc2c(F)cc(N3CCC3)cc2o1 [Example 187] | criterion not met |
| COc1ccc(S(=O)(=O)NC(=O)c2cc3c(F)cc(N4CCC4)cc3o2)c2c1CCCC2 [Example 180] | criterion not met |
| O=C(NS(=O)(=O)c1cc(Br)ccc1OC(F)(F)F)c1cc2c(F)cc(N3CCC3)cc2o1 [Example 82] | criterion met |
| CCOc1cccc(OCC(F)F)c1S(=O)(=O)NC(=O)c1cc2c(F)cc(N3CCC3)cc2o1 [Example 81] | criterion met |
| O=C(NS(=O)(=O)c1cc(C(F)(F)F)cnc1Cl)c1cc2c(F)cc(N3CCC3)cc2o1 [Example 103] | criterion not met |
| COc1ccc(C2=CCN(C)CC2)cc1S(=O)(=O)NC(=O)c1cc2c(F)cc(N3CCC3)cc2o1 [Example 203] | criterion not met |
| CCOC(=O)c1cn2cccc(S(=O)(=O)NC(=O)c3cc4c(F)cc(N5CCC5)cc4o3)c2n1 [Example 90] | criterion not met |
| CC(Oc1ccccc1S(=O)(=O)NC(=O)c1cc2c(F)cc(N3CCC3)cc2o1)C(F)(F)F (racemic) [Example 13] | criterion met |
| O=C(NS(=O)(=O)c1ccccc1CCC(F)(F)F)c1cc2c(F)cc(N3CCC3)cc2o1 [Example 52] | criterion not met |
| CC(Oc1ccccc1S(=O)(=O)NC(=O)c1cc2c(F)cc(N3CCC3)cc2o1)C(F)(F)F (single isomer, unassigned) [Example 14] | criterion met |
| Cc1cc(C(C)(C)C)cc(S(=O)(=O)NC(=O)c2cc3c(F)cc(N4CCC4)cc3o2)c1C [Example 189] | criterion met |
| CCOc1ccc(C(C)C)cc1S(=O)(=O)NC(=O)c1cc2c(F)cc(N3CCC3)cc2o1 [Example 128] | criterion met |
| Cc1ccc(S(=O)(=O)NC(=O)c2cc3c(F)cc(N4CCC4)cc3o2)c2ccccc12 [Example 87] | criterion not met |
| CC(C)(C)c1ccc(OCc2ccccc2)c(S(=O)(=O)NC(=O)c2cc3c(F)cc(N4CCC4)cc3o2)c1 [Example 225] | criterion met |
| CCOc1ccccc1S(=O)(=O)NC(=O)c1cc2ccc(N3CC(C(F)(F)F)C3)cc2o1 [Example 117] | criterion not met |
| CCOc1ccccc1S(=O)(=O)NC(=O)c1cc2ccc(N3CC4(CCC4)C3)cc2o1 [Example 123] | criterion not met |
| O=C(NS(=O)(=O)c1c(F)cccc1NC1CC1)c1cc2c(F)cc(N3CCC3)cc2o1 [Example 50] | criterion not met |
| Cn1nc(S(=O)(=O)NC(=O)c2cc3c(F)cc(N4CCC4)cc3o2)c2ccc(C(F)(F)F)nc21 [Example 144] | criterion not met |
| CCCOc1ccccc1S(=O)(=O)NC(=O)c1cc2c(F)cc(N3CCC3)cc2o1 [Example 133] | criterion met |
| CCc1csc(C)c1S(=O)(=O)NC(=O)c1cc2c(F)cc(N3CCC3)cc2o1 [Example 36] | criterion not met |
